The reported measurements were obtained from paper PMC10065791.

- MEASUREMENT TARGET: I50V/A71V mutant protease (Human immunodeficiency virus type 1 group M subtype B, UniProt P12497, A559V/I538V/Q495K)
- Construct: the gene encoding the desired HIV-1 protease was subcloned into the heat-inducible pXC35 expression vector; made in house
- ASSAY OVERVIEW: Ki assay (FRET enzyme inhibition), I50V/A71V protease
- Assay type: biochemical, HIV-1
- MEASUREMENT PARAMETERS: I50V/A71V drug-resistant protease variant
pKi: −log10 of the molar value.
Entries and their measured pKi follow.
TEST READOUT: pKi

1) CC[C@H](C)CN(C[C@@H](O)[C@H](Cc1ccccc1)NC(=O)O[C@H]1CO[C@H]2OCC[C@H]21)S(=O)(=O)c1ccc2ncsc2c1 = 11.11
2) CCC(CC)CN(C[C@@H](O)[C@H](Cc1ccccc1)NC(=O)O[C@H]1CO[C@H]2OCC[C@H]21)S(=O)(=O)c1ccc2ncsc2c1 = 11.24
3) CC[C@H](C)CN(C[C@@H](O)[C@H](Cc1ccccc1)NC(=O)O[C@H]1CO[C@H]2OCC[C@H]21)S(=O)(=O)c1ccc(OC)cc1 = 10.82
4) CC[C@H](C)CN(C[C@@H](O)[C@H](Cc1ccccc1)NC(=O)O[C@H]1CO[C@H]2OCC[C@H]21)S(=O)(=O)c1ccc2c(c1)OCO2 = 10.48
5) CC[C@H](C)CN(C[C@@H](O)[C@H](Cc1ccccc1)NC(=O)O[C@H]1CO[C@H]2OCC[C@H]21)S(=O)(=O)c1ccc(CO)cc1 = 10.10

====

- MEASUREMENT TARGET: I84V mutant protease (Human immunodeficiency virus type 1 group M subtype B, UniProt P12497, I572V/Q495K)
- Construct: the gene encoding the desired HIV-1 protease was subcloned into the heat-inducible pXC35 expression vector; made in house
- ASSAY OVERVIEW: Ki assay (FRET enzyme inhibition), I84V protease
- Assay type: biochemical, HIV-1
- MEASUREMENT PARAMETERS: I84V drug-resistant protease variant
# note: exactly 10 pM is not below, so it is FALSE; use TRUE for Ki strictly under it

1. CCC(CC)CN(C[C@@H](O)[C@H](Cc1ccccc1)NC(=O)O[C@H]1CO[C@H]2OCC[C@H]21)S(=O)(=O)c1ccc(OC)cc1 = FALSE
2. CC[C@H](C)CN(C[C@@H](O)[C@H](Cc1ccccc1)NC(=O)O[C@H]1CO[C@H]2OCC[C@H]21)S(=O)(=O)c1ccc(OC)cc1 = TRUE
3. CC[C@H](C)CN(C[C@@H](O)[C@H](Cc1ccccc1)NC(=O)O[C@H]1CO[C@H]2OCC[C@H]21)S(=O)(=O)c1ccc2c(c1)OCO2 = FALSE
4. CC[C@H](C)CN(C[C@@H](O)[C@H](Cc1ccccc1)NC(=O)O[C@H]1CO[C@H]2OCC[C@H]21)S(=O)(=O)c1ccc2ncsc2c1 = TRUE
5. CCC(CC)CN(C[C@@H](O)[C@H](Cc1ccccc1)NC(=O)O[C@H]1CO[C@H]2OCC[C@H]21)S(=O)(=O)c1ccc2ncsc2c1 = FALSE
6. CCC(CC)CN(C[C@@H](O)[C@H](Cc1ccccc1)NC(=O)O[C@H]1CO[C@H]2OCC[C@H]21)S(=O)(=O)c1ccc2c(c1)OCO2 = TRUE
7. CCC(CC)CN(C[C@@H](O)[C@H](Cc1ccccc1)NC(=O)O[C@H]1CO[C@H]2OCC[C@H]21)S(=O)(=O)c1ccc(CO)cc1 = TRUE
